- procedure_text: chemical genetic growth profiling, strain panel (AID 1159580);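 also: tested at 20 µM; growth read once vehicle control cultures reached saturation at 30 °C; 1 = growth at the plate median or of vehicle wells; lower values mean less growth of the strain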
- test_conditions: S. cerevisiae deletion strains, growth OD, locus YDL185W, strain tfp1
About 2,000 (36%) of roughly 5,500 compounds were called active. Inconclusive results (about 18%) are left out. Rule as the data show it: active = normalized growth mostly below about 0.91 (no sharp cut-off); inconclusive = no clear call, values can overlap the other calls; inactive = mostly above about 0.92. Some of the results follow.
Classes used: label 1 for active, label 0 for inactive

CCOc1ccc(C(=O)c2cc(O)c(OC)c(OC)c2O)cc1 : label 0
CCOc1ccc(NC(C)=O)cc1 : label 0
COc1ccc(C(=O)c2ccc(O)cc2)c(O)c1O : label 0
COc1ccc(C(=O)O)c(O)c1OC : label 0
CC(=O)N[C@@H](Cc1c[nH]c2ccccc12)C(=O)O : label 0
CNC(Cc1c[nH]c2ccccc12)C(=O)O (configuration not stated) : label 0
COc1ccc(C(=O)c2ccccc2)c(O)c1O : label 1
